So I've got a bunch of binders here, and I need their glycan array binding signal (z-score) values.
biological target: Fuc(a1-2)[GalNAc(b1-3)]Gal; test: glycan array binding signal (z-score within array); higher = stronger binding; details: glycan notation: IUPAC condensed, linker removed
This excerpt belongs to a sample that is enriched for the strongest signals.
Numbers only.

Need glycan array binding signal (z-score) for each of these binders.
1. FimA-N1 (Actinomyces oris) (protein) MHHHHHHSSGVDLGTENLYFQSNATETPNYGNIKTDATGSLVIHKHLTGGGKDIGTPTGTAQNADDKGPAVEGVVFTAYPITDINLKDPAGWDTISNLSRTGVPDSACANPAAPTLGAHQFGTPKVSPATTKEGLATITEMPVQAYLVCETTTPGDIVQKAKPFVVTIPHPNTAAGADGQWIYDVNVYPKNEAIDVDKTIQAQK
2. RBMC1 (Vibrio cholerae) (protein) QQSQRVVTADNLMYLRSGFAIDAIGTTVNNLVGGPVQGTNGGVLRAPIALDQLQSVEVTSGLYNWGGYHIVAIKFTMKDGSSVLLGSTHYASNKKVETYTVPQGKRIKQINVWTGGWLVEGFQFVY
3. cupB6 (Pseudomonas aeruginosa), Q02SP7 (protein) MSMRLFPGRVSLRRRPGAQARQALVLGLCCLTGGQAWALNEVALNCSFGNGKGLPWRVVNELTSGTAKGTVLFARPVSLFLSYKPQASQEAHELVLGGNWSGVGYPGPYGTVASDVKGIGYRISVDAQDGVKRVIPVDNQPHALDKRVTSFSGSTTSDYLQELVLTVDPGELPAGDLKVTSVSGSATLNLWAVDRLKGEASIGSVLAVPADNYPTGVCRKPYSLIGPASIAIGGGPPPPPIPKKCKVEVGREINVKLGSVALKNFPRVNDTSTERSFDISLSECAALAKPEIAFRDKYVSAQQADPTILSLKSGGAAGFGIVVKNGLDQQRIRFDGTPYPMRRVGDSADLPLSAAYIRIGAEGELKAGVADGAAEFTFTFP

1.69
-0.299
-0.269
